# Measurement target: Leucine aminopeptidase (Plasmodium falciparum (isolate 3D7))
# Measurement protocol: inhibition of purified malaria M17 aminopeptidase – biochemical, fluorescence, recombinant enzyme, powder samples, late-stage follow-up (AID 492977)
# Particulars: recombinant PfM17LAP, H-Leu-NHMec fluorogenic substrate; at 5 µM
Activity calls are given as the source filed them.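 Rule for the calls: active = inhibition of the parasite aminopeptidase above 50%; inactive = the rest.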
Outcome codes: TRUE = active, FALSE = inactive

Cpd smiles	Class
CCn1c2ccccc2c2cc(NC(=O)CSc3nccc(=O)[nH]3)ccc21	TRUE
CCc1cc2cc(OC)ccc2nc1SCC(=O)Nc1cc(OC)c(OC)cc1C(=O)O	TRUE
O=C(O)Cc1ccc(NC(=O)Nc2ccc(Br)cc2)cc1	FALSE
CCOC(=O)c1c(-c2cccc(C)c2)csc1NC(=O)[C@H]1CC=CC[C@H]1C(=O)O	FALSE
Cc1ccc(NC(=O)CSc2nnc(C)c(=O)[nH]2)cc1C	FALSE
COc1ccc(NC(=O)CSC2=NC(=O)CC(C)=N2)cc1	FALSE
COc1cc(NC(=O)CSc2nc3c(C)ccc(C)c3cc2C)c(C(=O)O)cc1OC	TRUE
COC(=O)c1c(-c2cc(C)ccc2C)csc1NC(=O)[C@@H]1CC=CC[C@@H]1C(=O)O	TRUE
O=C(CSc1nccc(=O)[nH]1)Nc1ccc(Br)c(Cl)c1	TRUE
COC(=O)c1cccc(NC(=O)CSc2nc(C)cc(=O)[nH]2)c1	FALSE
CCOc1ccc(NC(=O)Nc2cccs2)cc1	FALSE

# credit: PubChem BioAssay AID492977
